molecular target: CDK2 (UniProt P24941); experiment: Enzyme Assay
What IC50 was measured for each of the following?

Look at this compound and give its reported IC50. `COc1cccc(-c2cc(Nc3ccc(C)c(NS(C)(=O)=O)c3)ncn2)c1`
1 to 10 µM

Can you handle `Cc1ccc(Nc2cc(-c3ccccc3)ncn2)cc1NS(C)(=O)=O` next?
0.001 to 1 µM

Can you handle `COc1ccccc1-c1cc(Nc2ccc(NC(=O)CN(C)C)cc2)ncn1` next?
1 to 10 µM

Can you handle `CCCCNS(=O)(=O)c1cccc(Nc2cc(-c3ccccc3OC)ncn2)c1` next?
1 to 10 µM

Can you handle `CNC(C)(C)C(=O)Nc1ccc(Nc2cc(-c3ccccc3OC)ncn2)cc1` next?
1 to 10 µM

Can you handle `COc1ccccc1-c1cc(Nc2ccc(NC(=O)C(C)(C)C)cc2C)ncn1` next?
10 to 250 µM

Can you handle `COc1ccccc1-c1cc(Nc2ccc(C(=O)Nc3ccc(N4CCOCC4)cc3)cc2)ncn1` next?
1 to 10 µM

Can you handle `COc1ccccc1-c1cc(Nc2ccc(NC(=O)Cc3ccccc3)cc2)ncn1` next?
1 to 10 µM

Can you handle `COc1ncccc1-c1cc(Nc2ccc(C)c(NS(C)(=O)=O)c2)ncn1` next?
1 to 10 µM

Can you handle `COc1ccccc1-c1cc(Nc2ccc(NC(=O)[C@@H]3CCCCN3C(=O)OC(C)(C)C)cc2)ncn1` next?
1 to 10 µM

* * *

molecular target: CDK2 (UniProt P24941); assay: Enzyme Assay
pIC50: −log10 of the molar value.
Quantity kind: pIC50

Look at this molecule and give its reported pIC50. `COc1ccccc1-c1cc(N(C)c2ccc(N)cc2)ncn1`
5.00 to 6.00

Can you handle `COc1ccccc1-c1cc(Nc2ccc(NC(=O)C3CCCCC3)cc2)ncn1` next?
3.60 to 5.00

Can you handle `CC(C)Oc1ccccc1-c1cc(NCCc2ccncc2)ncn1` next?
5.00 to 6.00

Can you handle `COc1ccccc1-c1cc(Nc2ccc(C(=O)N[C@@H]3CCCC[C@H]3N)cc2)ncn1.COc1ccccc1-c1cc(Nc2ccc(C(=O)N[C@H]3CCCC[C@@H]3N)cc2)ncn1` next?
5.00 to 6.00

Can you handle `COc1ccccc1-c1cc(NCCc2ccncc2)ncn1` next?
3.60 to 5.00

Can you handle `Nc1ccc(C(=O)Nc2ccc(Nc3cc(NCCO)ncn3)cc2)cc1` next?
3.60 to 5.00

Can you handle `COc1ccccc1-c1cc(Nc2ccc(NC(=O)[C@@H]3CCN3)cc2)ncn1` next?
5.00 to 6.00

Can you handle `COc1ccccc1-c1cc(Nc2ccc(NC(=O)NC3CCCCC3)cc2)ncn1` next?
5.00 to 6.00

Can you handle `O=C(Nc1ccc(Nc2cc(-c3ccccc3Cl)ncn2)cc1)[C@@H]1CCCCN1` next?
3.60 to 5.00

Can you handle `COc1ccccc1-c1cc(Nc2ccc(NC(=O)C(C)(C)C)cc2)ncn1` next?
5.00 to 6.00

Can you handle `Nc1ccc(C(=O)Nc2ccc(Nc3cc(-c4ccc(O)cc4)ncn3)cc2)cc1` next?
5.00 to 6.00

Can you handle COc1ccccc1-c1cc(Nc2ccc(NC(=O)C(c3ccccc3)C(C)C)cc2)ncn1 (centres undefined) next?
3.60 to 5.00

Can you handle `N[C@@H]1CCCC[C@H]1NC(=O)c1ccc(Nc2cc(-c3ccccc3OCc3ccccc3)ncn2)cc1.N[C@H]1CCCC[C@@H]1NC(=O)c1ccc(Nc2cc(-c3ccccc3OCc3ccccc3)ncn2)cc1` next?
6.00 to 9.00

Can you handle `COc1ccccc1-c1cc(Nc2ccc(C)c(NS(C)(=O)=O)c2)ncn1` next?
6.00 to 9.00

Can you handle `COc1ccccc1-c1cc(Nc2ccc(C(=O)Nc3ccccc3)cc2)ncn1` next?
3.60 to 5.00

Can you handle `COC(=O)c1ccc(Nc2cc(-c3ccccc3OC)ncn2)cc1` next?
6.00 to 9.00

Can you handle `COc1ccccc1-c1cc(Nc2ccc(C(=O)N[C@@H]3CCCC[C@H]3O)cc2)ncn1.COc1ccccc1-c1cc(Nc2ccc(C(=O)N[C@H]3CCCC[C@@H]3O)cc2)ncn1` next?
5.00 to 6.00

Can you handle `COc1ccccc1-c1cc(Nc2cccc(NC(=O)C(C)(C)C)c2)ncn1` next?
5.00 to 6.00

Can you handle `CCN(CC)CCC(=O)Nc1ccc(Nc2cc(-c3ccccc3OC)ncn2)cc1` next?
5.00 to 6.00

* * *

biological target: CDK2 (UniProt P24941); assay: Enzyme Assay
pIC50: −log10 of the molar value.
What pIC50 was measured for each of the following?

Look up pIC50 with CDK2 (UniProt P24941) for this compound: `CCCS(=O)(=O)Nc1ccc(Nc2cc(-c3ccccc3OC)ncn2)cc1`
6.00 to 9.00

Can you handle `COc1ccccc1-c1cc(Nc2ccc(NC(=O)c3ccc4[nH]cnc4c3)cc2)ncn1` next?
3.60 to 5.00

Can you handle `COc1ccccc1-c1cc(Nc2ccc(NC(=O)c3ccc(N)cc3)cc2)nc(N)n1` next?
3.60 to 5.00

Can you handle `COc1ccc(-c2cc(NCCc3ccncc3)ncn2)cc1` next?
3.60 to 5.00

Can you handle `Cc1ccc(Nc2cc(-c3cccc(N)c3)ncn2)cc1NS(C)(=O)=O` next?
6.00 to 9.00

Can you handle `CC[C@H](C)[C@H](N)C(=O)Nc1ccc(Nc2cc(-c3ccccc3OC)ncn2)cc1` next?
5.00 to 6.00

Can you handle `COc1ccccc1-c1cc(Nc2ccc(-c3nc4ccccc4[nH]3)cc2)ncn1` next?
6.00 to 9.00

Can you handle `COc1ccccc1-c1cc(Nc2ccc(NC(=O)c3ccc4c(c3)OCO4)cc2)ncn1` next?
5.00 to 6.00

Can you handle `CC(C)Oc1ccccc1-c1cc(Nc2ccc(NC(=O)c3ccc(N)cc3)cc2)ncn1` next?
6.00 to 9.00

Can you handle `COc1ccccc1-c1cc(Nc2ccc(NC(=O)c3ccc(N)cc3)cc2)ncn1` next?
5.00 to 6.00

Can you handle `CC(C)(C)C(=O)Nc1ccc(Nc2cc(-c3cccnc3)ncn2)cc1` next?
3.60 to 5.00

Can you handle `CC(C)Oc1ccccc1-c1cc(Nc2ccc(NC(=O)[C@@H]3CCCCN3)cc2)ncn1` next?
5.00 to 6.00

Can you handle `CN1CCN(c2cc(Nc3ccc(NC(=O)C(C)(C)C)cc3)ncn2)CC1` next?
3.60 to 5.00

Can you handle COc1ccccc1-c1cc(Nc2ccc(C(=O)NC3CCCNC3)cc2)ncn1 (stereo unspecified) next?
6.00 to 9.00

Can you handle `COc1ccccc1-c1cc(Nc2ccc(NS(=O)(=O)c3ccc(-c4ccccc4)cc3)cc2)ncn1` next?
5.00 to 6.00

Can you handle `Cc1ccc(S(=O)(=O)Nc2ccc(Nc3cc(-c4ccc(CCC(=O)O)cc4)ncn3)cc2)cc1` next?
3.60 to 5.00

Can you handle `Cc1ccc(Nc2cc(-c3cccc(N(C)C)c3)ncn2)cc1NS(C)(=O)=O` next?
5.00 to 6.00

Can you handle `COc1ccccc1-c1cc(Nc2ccc(C(N)=O)cc2)ncn1` next?
6.00 to 9.00

Can you handle `COc1ccccc1-c1cc(Nc2ccc(NC(=O)c3ccc(N4CCN(C)CC4)cc3)cc2)ncn1` next?
5.00 to 6.00

Can you handle COc1ccccc1-c1cc(Nc2ccc(NC(=O)CC3CCCCN3)cc2)ncn1 (stereo unspecified) next?
5.00 to 6.00

Can you handle `COc1cccc(OC)c1-c1cc(Nc2ccc(NC(=O)c3ccc(N)cc3)cc2)ncn1` next?
3.60 to 5.00

* * *

biological target: UniProt:P24941; experiment: Enzyme Assay
pIC50: −log10 of the molar value.
What pIC50 was measured for each of the following?

Look at this compound and give its reported pIC50. `COc1ccccc1-c1cc(Nc2cccc(N)c2)ncn1`
6.00 to 9.00

Can you handle `O=C(Nc1ccc(Nc2cc(-c3ccccc3OCc3ccccc3)ncn2)cc1)[C@@H]1CCCCN1` next?
6.00 to 9.00

Can you handle `COc1ccccc1-c1cc(Nc2ccc(NC(=O)[C@H]3CCCN3)cc2)ncn1` next?
5.00 to 6.00

Can you handle `NCCCOc1ccccc1-c1cc(Nc2ccc(NC(=O)c3ccc(N)cc3)cc2)ncn1` next?
5.00 to 6.00

Can you handle `COc1ccccc1-c1cc(Nc2ccc(NC(C)=O)cc2)ncn1` next?
6.00 to 9.00

Can you handle `CCCS(=O)(=O)Nc1cc(Nc2cc(-c3cccc(N)c3)ncn2)ccc1C` next?
6.00 to 9.00

Can you handle `COC(=O)CN(c1ccc(Nc2cc(-c3ccc(O)cc3)ncn2)cc1)S(=O)(=O)c1ccc(C)cc1` next?
6.00 to 9.00

Can you handle `CC(C)(C)C(=O)Nc1ccc(Nc2cc(-c3ccccc3C(F)(F)F)ncn2)cc1` next?
3.60 to 5.00

Can you handle `Nc1ccc(C(=O)Nc2ccc(Nc3cc(-c4ccncc4)ncn3)cc2)cc1` next?
3.60 to 5.00

Can you handle `Nc1cccc(-c2cc(Nc3ccc(S(N)(=O)=O)cc3)ncn2)c1` next?
6.00 to 9.00

Can you handle `NC(=O)c1ccc(Nc2cc(-c3ccccc3OCc3ccccc3)ncn2)cc1` next?
6.00 to 9.00

Can you handle `COc1ccccc1-c1cc(Nc2ccc(NC(=O)NCc3ccc(C)cc3)cc2)ncn1` next?
3.60 to 5.00

Can you handle `COc1ccc(C(C)C)cc1-c1cc(Nc2ccc(NC(=O)c3ccc(N)cc3)cc2)ncn1` next?
3.60 to 5.00

Can you handle `COc1ccccc1-c1cc(Nc2ccc(NS(=O)(=O)C(C)C)cc2)ncn1` next?
6.00 to 9.00

Can you handle `Cc1ccc(Nc2cc(-c3ccccc3OCc3ccccc3)ncn2)cc1NS(C)(=O)=O` next?
6.00 to 9.00

Can you handle `Nc1ccc(C(=O)Nc2ccc(Nc3cc(Cl)ncn3)cc2)cc1` next?
3.60 to 5.00

Can you handle `COc1ccccc1-c1ncnc(Nc2ccc(N)cc2)c1C` next?
3.60 to 5.00

Can you handle `COc1ccccc1-c1cc(N(C)c2ccc(NS(=O)(=O)c3ccc(C)cc3)cc2)ncn1` next?
5.00 to 6.00

Can you handle `Cc1ccc(Nc2cc(-c3cccc(N)c3)ncn2)cc1NS(=O)(=O)c1cccc2cccnc12` next?
3.60 to 5.00

Can you handle `COc1ccc(-c2cc(Nc3cccc(S(N)(=O)=O)c3)ncn2)cc1` next?
6.00 to 9.00

Can you handle `CC(C)(C)C(=O)Nc1ccc(Nc2cc(Cl)ncn2)cc1` next?
3.60 to 5.00

Can you handle `Nc1ccc(C(=O)Nc2ccc(Nc3cc(NCC4CCCCC4)ncn3)cc2)cc1` next?
3.60 to 5.00

Can you handle `COc1ccccc1-c1cc(Nc2cccc(S(N)(=O)=O)c2)ncn1` next?
6.00 to 9.00

Can you handle `CSc1ccccc1-c1cc(Nc2ccc(NC(=O)[C@@H]3CCCCN3)cc2)ncn1` next?
5.00 to 6.00

Can you handle `O=C(Nc1ccc(Nc2cc(-c3ccc(Oc4ccccc4)cc3)ncn2)cc1)[C@@H]1CCCCN1` next?
5.00 to 6.00

Can you handle `CC(C)(C)C(=O)Nc1ccc(Nc2cc(NCCCO)ncn2)cc1` next?
3.60 to 5.00

Can you handle `CC(=O)Nc1cccc(-c2cc(Nc3ccc(C)c(NS(C)(=O)=O)c3)ncn2)c1` next?
5.00 to 6.00

Can you handle `CN1CCC(Nc2cc(Nc3ccc(NC(=O)C(C)(C)C)cc3)ncn2)CC1` next?
3.60 to 5.00

Can you handle `COc1ccc(Cl)cc1-c1cc(Nc2ccc(NC(=O)c3ccc(N)cc3)cc2)ncn1` next?
3.60 to 5.00

Every entry's value here was drawn from the Kinase Knowledgebase extract (Sharma et al. 2016).
